Hello, the source for this data is patent US8841483B2, in case you need it.

# System Name: NaV1.8 (Homo sapiens, UniProt Q9Y5Y9)
# Method: Activity against NaV 1.8 channel (Table 3), optical membrane potential / electrophysiology assays
# Assay type: cell-based
# Experimental: Compounds of the invention are useful as antagonists of voltage-gated sodium ion channels. Antagonist properties of test compounds were assessed as follows. Cells expressing the NaV of interest were placed into microtiter plates. […] The cells were stimulated with either a chemical or electrical means ti evoke a NaV dependent membrane potential change from unblocked channels, which was detected and measured with trans-membrane potential-sensitive dyes. […]
Each entry below carries its reported IC50.

{"Smiles Representation": "CC(C)(C)c1ccc(C(=O)Nc2cccc(S(N)(=O)=O)c2)c(Oc2cccc(N3CCOCC3)c2)c1", "IC50": "> 10 µM"}
{"Smiles Representation": "CC(C)(C)c1ccc(C(=O)Nc2cccc(S(N)(=O)=O)c2)c(Oc2cccc(F)c2)c1", "IC50": "< 2 µM"}
{"Smiles Representation": "CC(C)(C)c1ccc(C(=O)Nc2cccc(S(N)(=O)=O)c2)c(Oc2ccc(F)cc2F)c1", "IC50": "< 2 µM"}
{"Smiles Representation": "COc1cccc(Oc2cc(C(C)(C)C)ccc2C(=O)Nc2cccc(S(N)(=O)=O)c2)c1", "IC50": "2 to 10 µM"}
{"Smiles Representation": "NS(=O)(=O)c1cccc(NC(=O)c2ccc(C(F)(F)F)cc2O)c1", "IC50": "> 10 µM"}
{"Smiles Representation": "NS(=O)(=O)c1cccc(NC(=O)c2ccc(Cl)c(Cl)c2)c1", "IC50": "> 10 µM"}
{"Smiles Representation": "CC(C)(C)c1ccc(C(=O)Nc2cccc(S(N)(=O)=O)c2)c(Oc2ccc(C#N)cc2Cl)c1", "IC50": "< 2 µM"}
{"Smiles Representation": "CCOc1cc(C(C)(C)C)ccc1C(=O)Nc1cccc(S(N)(=O)=O)c1", "IC50": "< 2 µM"}
{"Smiles Representation": "NS(=O)(=O)c1cccc(NC(=O)c2ccccc2C2CCCCC2)c1", "IC50": "< 2 µM"}
{"Smiles Representation": "CN(C(=O)c1ccc(C(C)(C)C)cc1)c1cccc(S(N)(=O)=O)c1", "IC50": "> 10 µM"}
{"Smiles Representation": "NS(=O)(=O)c1cccc(NC(=O)c2ccccc2-n2cccc2)c1", "IC50": "> 10 µM"}
{"Smiles Representation": "Cc1ncccc1Oc1cc(C(C)(C)C)ccc1C(=O)Nc1cccc(S(N)(=O)=O)c1", "IC50": "< 2 µM"}
{"Smiles Representation": "CC(C)(C)c1ccc(C(=O)Nc2cccc(S(N)(=O)=O)c2)cc1", "IC50": "< 2 µM"}
{"Smiles Representation": "COc1cc(C)ccc1C(=O)Nc1cccc(S(N)(=O)=O)c1", "IC50": "> 10 µM"}
{"Smiles Representation": "CC(C)(C)c1ccc(C(=O)Nc2cc(S(N)(=O)=O)ccc2Cl)cc1", "IC50": "> 10 µM"}
{"Smiles Representation": "CC(C)(C)c1ccc(C(=O)Nc2cccc(S(N)(=O)=O)c2)c(Oc2ccccc2N2CCCCC2)c1", "IC50": "< 2 µM"}
{"Smiles Representation": "NS(=O)(=O)c1cccc(NC(=O)c2ccc(Cc3ccccc3)cc2)c1", "IC50": "> 10 µM"}
{"Smiles Representation": "CC(C)(C)c1ccc(C(=O)Nc2cccc(S(N)(=O)=O)c2)c(Oc2ccc(C(F)(F)F)cc2Cl)c1", "IC50": "2 to 10 µM"}
{"Smiles Representation": "CS(=O)(=O)c1ccc(C(=O)Nc2cccc(S(N)(=O)=O)c2)cc1", "IC50": "> 10 µM"}
{"Smiles Representation": "CCCc1ccc(C(=O)Nc2cccc(S(N)(=O)=O)c2)cc1", "IC50": "> 10 µM"}
{"Smiles Representation": "CC(C)COC(=O)N1CCN(c2ccccc2C(=O)Nc2cccc(S(N)(=O)=O)c2)CC1", "IC50": "> 10 µM"}
{"Smiles Representation": "COc1ccc(C(=O)Nc2cccc(S(N)(=O)=O)c2)cc1", "IC50": "> 10 µM"}
{"Smiles Representation": "COc1ccc(C(=O)Nc2cccc(S(N)(=O)=O)c2)c(C(F)(F)F)c1", "IC50": "> 10 µM"}
{"Smiles Representation": "Cc1cc(Br)ccc1C(=O)Nc1cccc(S(N)(=O)=O)c1", "IC50": "> 10 µM"}
{"Smiles Representation": "NS(=O)(=O)c1cccc(NC(=O)c2ccccc2CCc2ccccc2)c1", "IC50": "2 to 10 µM"}
{"Smiles Representation": "NS(=O)(=O)c1cccc(NC(=O)c2ccccc2Nc2cccnc2)c1", "IC50": "2 to 10 µM"}
{"Smiles Representation": "CC(=O)c1ccc(Oc2cc(C(C)(C)C)ccc2C(=O)Nc2cccc(S(N)(=O)=O)c2)cc1", "IC50": "< 2 µM"}
{"Smiles Representation": "CC(C)(C)c1ccc(C(=O)Nc2cccc(S(N)(=O)=O)c2)c(Br)c1", "IC50": "< 2 µM"}
{"Smiles Representation": "Cc1ccccc1Oc1cc(C(C)(C)C)ccc1C(=O)Nc1cccc(S(N)(=O)=O)c1", "IC50": "< 2 µM"}
{"Smiles Representation": "NS(=O)(=O)c1cccc(NC(=O)c2ccc(Cl)cc2Br)c1", "IC50": "> 10 µM"}
{"Smiles Representation": "CCCCc1ccc(C(=O)Nc2cccc(S(N)(=O)=O)c2)cc1", "IC50": "> 10 µM"}
{"Smiles Representation": "NS(=O)(=O)c1cccc(NC(=O)c2ccccc2Oc2ccc(C(F)(F)F)cc2)c1", "IC50": "< 2 µM"}
{"Smiles Representation": "Cc1cccc(Oc2cc(C(C)(C)C)ccc2C(=O)Nc2cccc(S(N)(=O)=O)c2)c1", "IC50": "< 2 µM"}
{"Smiles Representation": "NS(=O)(=O)c1cccc(NC(=O)c2ccc(C(F)(F)F)cc2)c1", "IC50": "> 10 µM"}
{"Smiles Representation": "Cc1c(Cl)cc(S(N)(=O)=O)cc1NC(=O)c1ccc(C(C)(C)C)cc1", "IC50": "> 10 µM"}

---

# System Name: UniProt Q9Y5Y9
# Method: Activity against NaV 1.8 channel (Table 3), optical membrane potential / electrophysiology assays
# Type: cell-based
# Protocol: Compounds of the invention are useful as antagonists of voltage-gated sodium ion channels. Antagonist properties of test compounds were assessed as follows. Cells expressing the NaV of interest were placed into microtiter plates. […] The cells were stimulated with either a chemical or electrical means ti evoke a NaV dependent membrane potential change from unblocked channels, which was detected and measured with trans-membrane potential-sensitive dyes. […]
Each entry below carries its reported IC50.

{"Compound": "Cc1ccc(Oc2cc(C(C)(C)C)ccc2C(=O)Nc2cccc(S(N)(=O)=O)c2)c(C)n1 [Compound 99]", "System Name": "UniProt Q9Y5Y9", "IC50": "< 2 µM"}
{"Compound": "NS(=O)(=O)c1cccc(NC(=O)c2ccccc2Cc2ccccc2)c1 [Compound 7]", "System Name": "UniProt Q9Y5Y9", "IC50": "< 2 µM"}
{"Compound": "CC(C)(C)c1ccc(C(=O)Nc2cccc(S(N)(=O)=O)c2)c(Oc2ccccc2C#N)c1 [Compound 111]", "System Name": "UniProt Q9Y5Y9", "IC50": "2 to 10 µM"}
{"Compound": "CC(=O)c1cccc(Nc2ccccc2C(=O)Nc2cccc(S(N)(=O)=O)c2)c1 [Compound 36]", "System Name": "UniProt Q9Y5Y9", "IC50": "> 10 µM"}
{"Compound": "Cc1cc(F)ccc1Oc1cc(C(C)(C)C)ccc1C(=O)Nc1cccc(S(N)(=O)=O)c1 [Compound 108]", "System Name": "UniProt Q9Y5Y9", "IC50": "< 2 µM"}
{"Compound": "CC(C)c1ccc(C(=O)Nc2cccc(S(N)(=O)=O)c2)cc1 [Compound 10]", "System Name": "UniProt Q9Y5Y9", "IC50": "2 to 10 µM"}
{"Compound": "Cc1ccc(C(=O)Nc2cccc(S(N)(=O)=O)c2)c(Br)c1 [Compound 142]", "System Name": "UniProt Q9Y5Y9", "IC50": "> 10 µM"}
{"Compound": "Cc1cc(C)c(S(N)(=O)=O)cc1NC(=O)c1ccc(C(C)(C)C)cc1 [Compound 25]", "System Name": "UniProt Q9Y5Y9", "IC50": "> 10 µM"}

---

Each entry below carries its reported pIC50.
# System Name: UniProt:Q9Y5Y9
# Method: Activity against NaV 1.8 channel (Table 3), optical membrane potential / electrophysiology assays
# Assay type: cell-based
pIC50: −log10 of the molar value.
Recorded Metric: pIC50

{"Smiles Representation": "NS(=O)(=O)c1cccc(NC(=O)c2ccc(C(F)(F)F)cc2C(F)(F)F)c1", "System Name": "UniProt:Q9Y5Y9", "Val": "< 5.00"}
{"Smiles Representation": "CC(C)COC(=O)NC1CCN(c2ccccc2C(=O)Nc2cccc(S(N)(=O)=O)c2)CC1", "System Name": "UniProt:Q9Y5Y9", "Val": "< 5.00"}
{"Smiles Representation": "CC(C)(C)c1ccc(C(=O)Nc2cccc(S(N)(=O)=O)c2)c(Oc2ccccc2C(F)(F)F)c1", "System Name": "UniProt:Q9Y5Y9", "Val": "> 5.70"}
{"Smiles Representation": "COc1ccc(Oc2ccccc2C(=O)Nc2cccc(S(N)(=O)=O)c2)cc1", "System Name": "UniProt:Q9Y5Y9", "Val": "5.00 to 5.70"}
{"Smiles Representation": "CCc1ccccc1C(=O)Nc1cccc(S(N)(=O)=O)c1", "System Name": "UniProt:Q9Y5Y9", "Val": "< 5.00"}
{"Smiles Representation": "NS(=O)(=O)c1cccc(NC(=O)c2ccccc2Nc2cccc(-c3nnn[nH]3)c2)c1", "System Name": "UniProt:Q9Y5Y9", "Val": "< 5.00"}
{"Smiles Representation": "CN(C)S(=O)(=O)c1cccc(NC(=O)c2ccc(C(C)(C)C)cc2)c1", "System Name": "UniProt:Q9Y5Y9", "Val": "< 5.00"}
{"Smiles Representation": "NS(=O)(=O)c1cccc(NC(=O)c2ccccc2Nc2cccc(Oc3ccccc3)c2)c1", "System Name": "UniProt:Q9Y5Y9", "Val": "< 5.00"}
{"Smiles Representation": "NS(=O)(=O)c1cccc(NC(=O)c2ccc(-c3ncc[nH]3)cc2)c1", "System Name": "UniProt:Q9Y5Y9", "Val": "< 5.00"}
{"Smiles Representation": "CS(=O)(=O)c1ccc(C(=O)Nc2cccc(S(N)(=O)=O)c2)c(Cl)c1", "System Name": "UniProt:Q9Y5Y9", "Val": "< 5.00"}
{"Smiles Representation": "CN(C)c1ccccc1C(=O)Nc1cccc(S(N)(=O)=O)c1", "System Name": "UniProt:Q9Y5Y9", "Val": "< 5.00"}
{"Smiles Representation": "COc1cc(C(C)(C)C)ccc1C(=O)Nc1cccc(S(N)(=O)=O)c1", "System Name": "UniProt:Q9Y5Y9", "Val": "> 5.70"}
{"Smiles Representation": "CC(C)(C)c1ccc(C(=O)Nc2cccc(S(N)(=O)=O)c2)c(Oc2cccnc2)c1", "System Name": "UniProt:Q9Y5Y9", "Val": "> 5.70"}
{"Smiles Representation": "COc1ccc(C(=O)Nc2cccc(S(N)(=O)=O)c2)c(OC)c1", "System Name": "UniProt:Q9Y5Y9", "Val": "< 5.00"}
{"Smiles Representation": "Cc1cc(Oc2cc(C(C)(C)C)ccc2C(=O)Nc2cccc(S(N)(=O)=O)c2)cc(C)n1", "System Name": "UniProt:Q9Y5Y9", "Val": "< 5.00"}
{"Smiles Representation": "Cc1ccccc1Oc1ccccc1C(=O)Nc1cccc(S(N)(=O)=O)c1", "System Name": "UniProt:Q9Y5Y9", "Val": "> 5.70"}
{"Smiles Representation": "NS(=O)(=O)c1cccc(NC(=O)c2cccc(Oc3ccccc3)c2)c1", "System Name": "UniProt:Q9Y5Y9", "Val": "5.00 to 5.70"}
